# method description: physchem
# assay setup: pH 6.8 buffer
metric name: solubility thermodynamic at 24 h

Below, 3 compounds whose answers are already recorded.
| compound | solubility thermodynamic at 24 h |
| --- | --- |
| CNC(=O)c1ccc(C(F)(F)F)cc1 | > 51 µg/mL |
| CN=S(C)(=O)c1ccc(C(F)(F)F)cc1 (configuration not stated) | > 54 µg/mL |
| CN1CCN(C)P1(=O)c1ccc(C(F)(F)F)cc1 | > 64 µg/mL |

Here are 2 compounds. What values of solubility thermodynamic at 24 h were reported for them?
1. CNS(=N)(=O)c1ccc(C(F)(F)F)cc1 (configuration not stated)
2. O=P1(c2ccc(C(F)(F)F)cc2)NCCCN1

> 54 µg/mL
> 61 µg/mL

Here are 2 compounds. What values of solubility thermodynamic at 24 h were reported for them?
1. Cc1ccc(NC(=O)c2ccc(C(N)=O)cc2)cc1Nc1nccc(-c2cccnc2)n1
2. CCOP(=O)(OCC)c1ccncc1

1: < 1 µg/mL; 2: > 50 µg/mL

====

# method description: physchem
# assay setup: octanol/water, pH 2
# Description: Octanol/water partition coefficient, log D of the compound at pH 2
metric name: logD
Numbers only.

| compound | logD |
| --- | --- |
| CCOP(C)(=O)c1ccc(C(=O)Nc2ccc(C)c(Nc3nccc(-c4cccnc4)n3)c2)cc1 (configuration not stated) | 0.9 |
| CP(C)(=O)c1ccc(C(F)(F)F)cc1 | 1.5 |
| O=P(O)(O)c1ccc(C(F)(F)F)cc1 | 0.6 |

Here are 2 compounds. What values of logD were reported for them?
1. Cc1ccc(NC(=O)c2ccc(C(N)=O)cc2)cc1Nc1nccc(-c2cccnc2)n1
2. O=P1(c2ccc(C(F)(F)F)cc2)CCOCC1

[0.4, 1.4]

====

# method description: Equilibrium thermodynamic aqueous solubility of the compound in pH 2 buffer incubated for 24 hrs by UV-spectroscopy based shake flask method
# Assay type: physicochemical
# assay setup: read-out: Therm_solubility
metric name: solubility thermodynamic at 24 h (mg/mL)
One number for each entry, in mg/mL.

Quick one: solubility thermodynamic at 24 h for COP(=O)(O)c1ccc(C(F)(F)F)cc1 ?
27.3

====

# method description: in vitro
# assay setup: human, Caco-2
# Description: Efflux ratio of permeability in human Caco2 cells measured up to 2 hrs by LC-MS/MS analysis or scintillation counting method
I'd be grateful if you could share measured efflux ratio at 2 h for these entries.

Below, 3 molecules whose answers are already recorded.
| molecule | assay result |
| --- | --- |
| CCOP(=O)(OCC)c1ccc(C(F)(F)F)cc1 | 0.6 |
| CNC(=O)c1ccc(C(=O)Nc2ccc(C)c(Nc3nccc(-c4cccnc4)n3)c2)cc1 | 4.9 |
| CC(C)OP(=O)(OC(C)C)c1ccc(C(F)(F)F)cc1 | 0.5 |

Here are 4 molecules. What values of efflux ratio at 2 h were reported for them?
1. CC(C)N1CCP(=O)(c2ccc(C(F)(F)F)cc2)CC1
2. CN1CCCN(C)P1(=O)c1ccc(C(F)(F)F)cc1
3. O=P1(c2ccc(C(F)(F)F)cc2)OCCCO1
4. O=P1(c2ccc(C(F)(F)F)cc2)CCC1

0.5
0.5
0.4
0.8

====

# method description: physchem
# assay setup: octanol/water, pH 11
# Description: Octanol/water partition coefficient, log D of the compound at pH 11
I'd be grateful if you could share measured logD for these entries.

Below, 6 molecules whose answers are already recorded.
| compound | assay result |
| --- | --- |
| O=P1(c2ccc(C(F)(F)F)cc2)NCCCN1 | 1.1 |
| O=P1(c2ccc(C(F)(F)F)cc2)CCCC1 | 1.7 |
| CN1CCCN(C)P1(=O)c1ccc(C(F)(F)F)cc1 | 2.7 |
| CC(C)(C)NC(=O)c1ccc(C(F)(F)F)cc1 | 3.7 |
| O=P1(c2ccc(C(F)(F)F)cc2)OCCNCCO1 | 1.5 |
| CC(C)P(=O)(c1ccc(C(F)(F)F)cc1)C(C)C | 2.8 |

Here are 3 molecules. What values of logD were reported for them?
1. CN1CCP(=O)(c2ccc(C(F)(F)F)cc2)CC1
2. CCOP(=O)(O)c1ccc(C(=O)Nc2ccc(C)c(Nc3nccc(-c4cccnc4)n3)c2)cc1
3. CCOC(=O)c1ccc(C(=O)Nc2ccc(C)c(Nc3nccc(-c4cccnc4)n3)c2)cc1

0.9
-0.6
3.5

Here are 3 molecules. What values of logD were reported for them?
1. CCOP(=O)(OCC)c1ccncc1
2. Cc1ccc(NC(=O)c2ccc(P(=O)(O)O)cc2)cc1Nc1nccc(-c2cccnc2)n1
3. CN1CCN(C)P1(=O)c1ccc(C(F)(F)F)cc1

1: 0.2; 2: -1; 3: 2

====

# method description: in vitro
# assay setup: human, Caco-2
# Description: Permeability across apical to basolateral side in human Caco2 cells measured up to 2 hrs by LC-MS/MS analysis or scintillation counting method
I'd be grateful if you could share measured Papp A→B at 2 h for these entries.

Below, 3 compounds whose answers are already recorded.
| compound | Papp A→B at 2 h |
| --- | --- |
| CCOP(=O)(O)c1ccc(C(=O)Nc2ccc(C)c(Nc3nccc(-c4cccnc4)n3)c2)cc1 | < 0.1 ×10⁻⁶ cm/s |
| Cc1ccc(NC(=O)c2ccc(P(=O)(O)O)cc2)cc1Nc1nccc(-c2cccnc2)n1 | < 0.3 ×10⁻⁶ cm/s |
| Cc1ccc(NC(=O)c2ccc(P(C)(=O)O)cc2)cc1Nc1nccc(-c2cccnc2)n1 | < 0.1 ×10⁻⁶ cm/s |

Quick one: Papp A→B at 2 h for CP(=O)(O)c1ccc(C(F)(F)F)cc1 ?
< 5 ×10⁻⁶ cm/s

====

# method description: in vitro
# assay setup: human, Caco-2
metric name: Papp A→B at 2 h (×10⁻⁶ cm/s)
Numbers only, in ×10⁻⁶ cm/s.

Below, 5 compounds whose answers are already recorded.
| compound | metric name | unit spec | assay result |
| --- | --- | --- | --- |
| CNC(=O)c1ccc(C(=O)Nc2ccc(C)c(Nc3nccc(-c4cccnc4)n3)c2)cc1 | Papp A→B at 2 h | ×10⁻⁶ cm/s | 8 |
| CNS(=N)(=O)c1ccc(C(F)(F)F)cc1 (stereo not given) | Papp A→B at 2 h | ×10⁻⁶ cm/s | 70 |
| CC1(C)COP(=O)(c2ccc(C(F)(F)F)cc2)OC1 | Papp A→B at 2 h | ×10⁻⁶ cm/s | 73 |
| CS(=N)(=O)c1ccc(C(F)(F)F)cc1 (stereo not given) | Papp A→B at 2 h | ×10⁻⁶ cm/s | 88 |
| CCOP(C)(=O)c1ccncc1 (stereo not given) | Papp A→B at 2 h | ×10⁻⁶ cm/s | 54 |

Here are 4 compounds. What values of Papp A→B at 2 h were reported for them?
1. CCP(=O)(CC)c1ccncc1
2. CN=S(=O)(NC)c1ccc(C(F)(F)F)cc1 (stereo not given)
3. O=S1(c2ccc(C(F)(F)F)cc2)=NCCCC1 (stereo not given)
4. CCOP(=O)(OCC)c1ccc(C(=O)Nc2ccc(C)c(Nc3nccc(-c4cccnc4)n3)c2)cc1

1: 19; 2: 81; 3: 84; 4: 18

Here are 6 compounds. What values of Papp A→B at 2 h were reported for them?
1. CN1CCCN(C)P1(=O)c1ccc(C(F)(F)F)cc1
2. Cc1ccc(NC(=O)c2ccc(C(N)=O)cc2)cc1Nc1nccc(-c2cccnc2)n1
3. O=P1(c2ccc(C(F)(F)F)cc2)OCCNCCO1
4. CCOP(=O)(O)c1ccc(C(F)(F)F)cc1
5. CN1CCCOP1(=O)c1ccc(C(F)(F)F)cc1 (stereo not given)
6. CC(C)OP(=O)(OC(C)C)c1ccc(C(F)(F)F)cc1

1. 81
2. 3
3. 63
4. 10
5. 64
6. 84

====

# method description: physchem
# assay setup: pH 6.8 buffer
metric name: solubility thermodynamic at 24 h

| molecule | solubility thermodynamic at 24 h |
| --- | --- |
| O=P1(c2ccc(C(F)(F)F)cc2)CCCCC1 | > 66 µg/mL |
| CCOP(C)(=O)c1ccncc1 (stereo unspecified) | > 45 µg/mL |
| CCOP(C)(=O)c1ccc(C(=O)Nc2ccc(C)c(Nc3nccc(-c4cccnc4)n3)c2)cc1 (stereo unspecified) | 51 µg/mL |
| Cc1ccc(NC(=O)c2ccc(P(=O)(O)O)cc2)cc1Nc1nccc(-c2cccnc2)n1 | > 115 µg/mL |
| CCP(=O)(CC)c1ccncc1 | > 46 µg/mL |

Quick one: solubility thermodynamic at 24 h for CC(C)N1CCP(=O)(c2ccc(C(F)(F)F)cc2)CC1 ?
> 68 µg/mL

====

# method description: physchem
# assay setup: octanol/water, pH 2
metric name: logD
Answers are plain numbers.

Below, 3 compounds whose answers are already recorded.
| compound | logD |
| --- | --- |
| O=P1(c2ccc(C(F)(F)F)cc2)CCNCC1 | 0 |
| CC(C)P(=O)(c1ccc(C(F)(F)F)cc1)C(C)C | 3.1 |
| CCOP(=O)(O)c1ccc(C(=O)Nc2ccc(C)c(Nc3nccc(-c4cccnc4)n3)c2)cc1 | 1 |

Here are 2 compounds. What values of logD were reported for them?
1. Cc1ccc(NC(=O)c2ccc(P(=O)(O)O)cc2)cc1Nc1nccc(-c2cccnc2)n1
2. NC(=O)c1ccc(C(F)(F)F)cc1

1: 0.4; 2: 1.5

Quick one: logD for CN1CCCOP1(=O)c1ccc(C(F)(F)F)cc1 (configuration not stated) ?
2.5
